I'd appreciate it if you could supply Relative Potency values for the items below.
Molecular target: VLA-4 (Homo sapiens, UniProt P05556+P13612)
Sequence (P13612 34-1032): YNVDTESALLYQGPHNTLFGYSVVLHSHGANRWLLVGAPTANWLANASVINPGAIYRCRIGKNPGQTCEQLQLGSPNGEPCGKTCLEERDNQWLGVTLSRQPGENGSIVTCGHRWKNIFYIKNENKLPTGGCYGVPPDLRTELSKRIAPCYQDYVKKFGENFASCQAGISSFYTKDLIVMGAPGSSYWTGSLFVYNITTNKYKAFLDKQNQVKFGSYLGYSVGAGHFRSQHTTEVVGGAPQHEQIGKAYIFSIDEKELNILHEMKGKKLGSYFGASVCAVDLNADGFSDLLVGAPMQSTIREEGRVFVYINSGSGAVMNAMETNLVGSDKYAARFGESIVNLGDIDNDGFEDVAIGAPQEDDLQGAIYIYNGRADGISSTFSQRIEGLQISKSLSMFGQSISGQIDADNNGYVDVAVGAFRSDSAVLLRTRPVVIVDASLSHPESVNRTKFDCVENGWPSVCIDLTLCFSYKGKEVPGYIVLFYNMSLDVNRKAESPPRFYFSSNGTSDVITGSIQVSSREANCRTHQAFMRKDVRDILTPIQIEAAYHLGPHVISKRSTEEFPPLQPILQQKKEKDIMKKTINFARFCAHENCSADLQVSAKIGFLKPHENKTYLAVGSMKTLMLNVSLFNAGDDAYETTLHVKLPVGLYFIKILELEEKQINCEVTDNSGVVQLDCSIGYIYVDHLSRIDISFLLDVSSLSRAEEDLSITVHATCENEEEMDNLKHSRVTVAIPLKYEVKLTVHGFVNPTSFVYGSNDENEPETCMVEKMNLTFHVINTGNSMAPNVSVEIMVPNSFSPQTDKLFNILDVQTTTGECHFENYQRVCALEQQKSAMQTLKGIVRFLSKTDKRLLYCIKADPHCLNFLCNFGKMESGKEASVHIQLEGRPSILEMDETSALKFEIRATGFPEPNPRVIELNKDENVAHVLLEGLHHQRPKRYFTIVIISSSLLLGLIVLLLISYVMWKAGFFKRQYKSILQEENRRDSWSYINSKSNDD
Sequence (P05556 21-798): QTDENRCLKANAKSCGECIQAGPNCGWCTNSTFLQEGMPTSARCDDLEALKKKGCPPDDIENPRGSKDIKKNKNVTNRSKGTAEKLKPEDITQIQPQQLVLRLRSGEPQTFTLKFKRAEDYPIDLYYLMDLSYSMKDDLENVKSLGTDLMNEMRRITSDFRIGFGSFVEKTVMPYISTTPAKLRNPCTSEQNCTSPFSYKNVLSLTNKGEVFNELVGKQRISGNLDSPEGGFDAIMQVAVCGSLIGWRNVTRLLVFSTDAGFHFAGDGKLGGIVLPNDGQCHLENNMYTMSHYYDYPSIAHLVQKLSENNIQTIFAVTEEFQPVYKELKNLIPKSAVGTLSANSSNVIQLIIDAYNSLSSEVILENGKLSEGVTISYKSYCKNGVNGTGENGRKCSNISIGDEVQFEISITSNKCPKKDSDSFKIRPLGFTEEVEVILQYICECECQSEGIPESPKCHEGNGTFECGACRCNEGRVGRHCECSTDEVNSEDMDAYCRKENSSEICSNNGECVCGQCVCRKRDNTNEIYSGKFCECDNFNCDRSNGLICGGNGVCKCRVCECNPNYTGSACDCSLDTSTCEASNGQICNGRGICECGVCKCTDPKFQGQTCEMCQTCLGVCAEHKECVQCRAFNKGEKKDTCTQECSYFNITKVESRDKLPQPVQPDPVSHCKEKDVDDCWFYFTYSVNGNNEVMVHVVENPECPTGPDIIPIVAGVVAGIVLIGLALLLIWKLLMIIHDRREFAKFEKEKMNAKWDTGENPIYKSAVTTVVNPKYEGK
Assay: In vitro binding assay: 51Cr-labeled Jurkat cells to solid phase-bound CS-1 compound (SEQ ID NO:1)
Assay type: cell-based
Parameters: inflammatory cells that contain the VLA-4 receptor [Jurkat cells; host or cells: Jurkat cells (human T lymphoblastic line)
Conditions: binding inhibition potency (IC50) relative to standard compound of SEQ ID NO:3 = 1; about one-tenth or less assigned zero
Experimental: Binding inhibition is measured here as a concentration of compound that inhibits one-half the binding between a standard number of Jurkat cells and a standard amount of CS-1 compound bound to the surface of a microtiter plate well. Those concentrations are conveniently expressed as IC50 values, smaller numbers indicating a lower concentration required to inhibit 50 percent binding and therefore greater potency. Further specifics of this assay are provided hereinafter. […]
Square brackets hold non-standard residues; d marks the D form. Peptide text beside a SMILES is read from it. * marks the point of attachment. NMeF = CN[C@@H](Cc1ccccc1)C(=O)O; Phg = N[C@H](C(=O)O)c1ccccc1; PhAc = O=C(Cc1ccccc1)*

Study these solved cases before continuing.
compound: CC(C)C[C@H](NC(=O)Cc1ccccc1)C(=O)N[C@@H](CC(=O)O)C(=O)N(C)[C@@H](Cc1ccccc1)C(=O)N1CCC[C@@H]1C(N)=O [1190.05] (PhAc-LD[NMeF][dP]-NH2)
measuredMetric: Relative Potency
measuredValue: 0

compound: CC(C)C[C@H](NC(=O)c1ccccc1)C(=O)N[C@@H](CC(=O)O)C(=O)N[C@H](C(=O)N1CCC[C@H]1C(N)=O)C(C)C
measuredMetric: Relative Potency
measuredValue: 16

compound: CC(C)C[C@H](NC(=O)Cc1ccccc1)C(=O)N[C@@H](CC(=O)O)C(=O)N[C@H](C(=O)N1CCC[C@@H]1C(N)=O)c1ccccc1 [896.69] (PhAc-LD[Phg][dP]-NH2)
measuredMetric: Relative Potency
measuredValue: 61

compound: CC(C)C[C@H](NC(=O)Cc1ccccc1)C(=O)N[C@@H](CC(=O)O)C(=O)N1C(=O)N(Cc2ccccc2)C(=O)[C@H]1Cc1ccccc1
measuredMetric: Relative Potency
measuredValue: .38

compound: CC(C)C[C@H](NC(=O)Cc1ccccc1)C(=O)N[C@@H](CC(=O)O)C(=O)N[C@@H](Cc1ccccc1)C(=O)N1CCN(CC(=O)O)CC1
measuredMetric: Relative Potency
measuredValue: 2600

# next compound below
Quick check: Relative Potency of CC(C)C[C@H](NC(=O)Cc1ccccc1)C(=O)N[C@@H](CC(=O)O)C(=O)N1C(=O)N(Cc2ccccc2)C(=O)[C@@H]1Cc1ccccc1 ?
.38

* * *

I'd appreciate it if you could supply Relative Potency (prodrug compound) values for the items below.
molecular target: VLA-4 (Homo sapiens, UniProt P05556+P13612); test: In vitro binding assay: 51Cr-labeled Jurkat cells to solid phase-bound CS-1 compound (SEQ ID NO:1); assay type: cell-based; design: inflammatory cells that contain the VLA-4 receptor [Jurkat cells; host or cells: Jurkat cells (human T lymphoblastic line); conditions: before the prodrug compound is enzymatically converted to an active form; relative to SEQ ID NO:3 = 1
Square brackets hold non-standard residues; d marks the D form. Peptide text beside a SMILES is read from it. * marks the point of attachment. PhAc = O=C(Cc1ccccc1)*; ODecyl = CCCCCCCCCCO*; X4 = CCN(CC)C(=O)CO*
Numbers only.

compound: CCCCCCCCCCOC(=O)C[C@H](NC(=O)[C@H](CC(C)C)NC(=O)Cc1ccccc1)C(=O)N[C@@H](Cc1ccccc1)C(=O)N1CCC[C@@H]1C(N)=O [1068.09] (PhAc-LD(ODecyl)F[dP]-NH2)
Relative Potency (prodrug compound): 0

# next compound below
Quick check: Relative Potency (prodrug compound) of CCN(CC)C(=O)COC(=O)C[C@H](NC(=O)[C@H](CC(C)C)NC(=O)Cc1ccccc1)C(=O)N[C@@H](Cc1ccccc1)C(=O)N1CCC[C@@H]1C(N)=O [1068.13] (PhAc-LD(X4)F[dP]-NH2) ?
0
